- studySystem: human BTK (Homo sapiens, UniProt Q06187)
- Construct: purchased Reaction Biology Corp
- Sequence (Q06187 whole entry): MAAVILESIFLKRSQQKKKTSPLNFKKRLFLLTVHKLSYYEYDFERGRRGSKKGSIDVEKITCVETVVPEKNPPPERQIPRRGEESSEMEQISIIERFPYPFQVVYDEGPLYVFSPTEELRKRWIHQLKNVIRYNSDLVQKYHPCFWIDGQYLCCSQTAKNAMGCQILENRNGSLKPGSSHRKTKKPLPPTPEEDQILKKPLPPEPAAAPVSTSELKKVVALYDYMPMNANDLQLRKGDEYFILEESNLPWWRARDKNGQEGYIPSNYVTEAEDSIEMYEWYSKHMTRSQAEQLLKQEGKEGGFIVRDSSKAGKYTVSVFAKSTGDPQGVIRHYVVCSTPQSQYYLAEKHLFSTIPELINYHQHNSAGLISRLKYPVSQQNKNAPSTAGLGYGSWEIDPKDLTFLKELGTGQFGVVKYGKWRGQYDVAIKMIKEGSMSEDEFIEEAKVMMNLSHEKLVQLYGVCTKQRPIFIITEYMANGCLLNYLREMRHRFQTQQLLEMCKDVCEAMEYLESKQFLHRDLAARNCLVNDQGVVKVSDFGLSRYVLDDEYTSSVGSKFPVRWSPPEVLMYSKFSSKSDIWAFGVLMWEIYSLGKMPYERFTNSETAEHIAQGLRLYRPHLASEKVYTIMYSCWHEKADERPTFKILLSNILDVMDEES
- assayMethodText: In vitro BTK kinase activity, 33P isotope-labeled kinase activity assay (Reaction Biology Corp)
- Format: biochemical
- assaySetup: 33P-ATP, 2 hours at room temperature
Provide the recorded pIC50 for the entries that follow.
Remember the convention: pIC50 equals -log10 of concentration in molar.

Input: What measured pIC50 goes with `Cc1cc(-c2nc(C(=O)Nc3cn4cc(C(C)(C)O)nc4cc3N3CCCCC3)co2)ccn1` ?
Output: 8.48

Input: What measured pIC50 goes with `CC(C)c1cc(-c2nc(C(=O)Nc3cn4cc(CCC(C)(C)O)nc4cc3N3CCCCC3)co2)ccn1` ?
Output: 7.63

Input: What measured pIC50 goes with `Cc1cc(-c2nc(C(=O)Nc3cn4cc(CCC(C)(C)O)nc4cc3-c3cccc(F)c3)co2)ccn1` ?
Output: 7.66

Input: What measured pIC50 goes with `Cc1cc(-c2nc(C(=O)Nc3cn4cc(CCC(=O)O)nc4cc3-c3ccccc3)co2)ccn1` ?
Output: 7.54
